These measurements were taken from patent US20230348376A1.

- Assay details: Evaluation of brain penetration in mice (blood and brain concentration at brain Cmax)
- Type: in vivo, mouse
- Experimental parameters: 1 mg/kg single oral dose, C57BL/6J mice, n=3
Outcome measure: Concentration in brain (mean ± SD) at brain Cmax (pmol/g)

a = C[C@H](CN1CCC(O)(C(F)(F)F)C1)[C@H]1CC[C@H]2/C(=C/C=C3C[C@@H](O)C[C@H](O)C3)CCC[C@]12C (single isomer, unassigned) [Compound B045b]
b = C=C1[C@H](O)CC(=C/C=C2\CCC[C@]3(C)[C@@H]([C@H](C)CN4CC[C@H](C(F)F)C4)CC[C@@H]23)C[C@H]1O
Incoming: Which value of Concentration in brain (mean ± SD) at brain Cmax is numerically greater: that of a or that of b ? Lab note: record the label of whichever item you select.
Outgoing: b
